# ASSAY OVERVIEW: yeast display, Sf9 membrane polyspecificity reagent, FACS + sequencing; frameworks hold sequencing errors
MEASURED PROPERTY: polyreactivity (PSR sort gate)

{"BIOPOLYMER SEQUENCE": "QVQLVESGGGLVQAGGSLRLSCAASGRTFVYYAMGWYRQAPGKERELVASISSNGGTYYADSVKGRFTISRDNAKNTVYLQMNSLKPEDTAVYYCNAKRVARYQYGASYNYWGQGTQVTVSS", "RESULT": "high polyreactivity"}
{"BIOPOLYMER SEQUENCE": "QVQLVESGGGLVQAGGSLRISCAASGRTFYYYAMGWYRQAPGKEREFVARITSSGGSTSYADSVKGRFTISRDNAKNTVYLQMNSLKPEDTAVYYFNAVSTYTSDDYDYWGQGSQVTVSS", "RESULT": "high polyreactivity"}
{"BIOPOLYMER SEQUENCE": "QVQLVESGGGLVQAGGSLRLSCAASGIIFYYYAMGWYRQATGKERELVAAITRSGGSTYYADSVKGRFTISRDNAKNTVYLQMNSLKPEDTAVYYCAAARLPYYVGRYYYWGQGTQVTVSS", "RESULT": "high polyreactivity"}
{"BIOPOLYMER SEQUENCE": "QVQLVESGVGLVQAGGSLRLSCAASGFTFSYNALGWYRQAPGKERELVAAISSSGGSTYYADSVKGRFTISRDNAKNTVYLQMNILKPEDTAVYYCAVPYLTLYGRTYDYWGHGTQVTVSS", "RESULT": "high polyreactivity"}
{"BIOPOLYMER SEQUENCE": "QVQLVESGGGLVQAGGSLRLSCATSGSIFYRYAMGWYRQAPGKEREFVAAIRWRGGSTYYADSVKGRFTISRDNAKNTVYLQMNSLKPEDTAVYYCAAPTVQSYNYWGQGTQVTVSS", "RESULT": "high polyreactivity"}
{"BIOPOLYMER SEQUENCE": "QVQLVESGGGLVQAGGSLRLSCAASGLIFTYYAMGWYRQAPGKERELVAAITSGGTTNYADSVKGRFTISRDNAKNTVYLQMNSLKPEDTAVYYCAADYDTGSERYEYWGQGTQVTVSS", "RESULT": "low polyreactivity"}

Inquiry: Fill in: polyreactivity (PSR sort gate) of `QVQLVESGGGLVQAGGSLRLSCAASGGIFPYYAMGWYRQAPGKERELVAGISQNDGRTYYADSVKGRFTISRDNAKNTVYLQMNSLKPEDTAVYYCATDYWYPRYGYWGQGTQVTVSS` is ___
Reply text: low polyreactivity

Inquiry: Fill in: polyreactivity (PSR sort gate) of `QVQLVESGGGLVQAGGSLRLSCAPSGSIFKQYAMGWYRQAPGKERELVARITGSGGSTYYTDSVKGRFTISRDNAKNTVYLQMNSLKPEDTAVYYCNAGGRDAGYDYWGQGTQVTVSS` is ___
Reply text: low polyreactivity

Inquiry: Fill in: polyreactivity (PSR sort gate) of `QVQLVESGGGLVQAGGSLRLSCAASGRIFYPNAMGWYRQAPGKERELVAAITGRGGITYYADSVKGRFTISRDNAKNTVYLQMNSLKPEDTAVYYCNAAAYYPTNYGGYLFEYWGQGTQVTVSS` is ___
Reply text: low polyreactivity

Inquiry: Fill in: polyreactivity (PSR sort gate) of `QVQLVESGAGLVQAGGSLRLSCAASGRTFWWYAMGWDRQAPGKERELVADINGSGGSTYYADSVKGRFTISRDNAKNTVYLQMICLKPEDTAVYFCAADYYRYIHSVVYSIYDYWGQGTQVTVSS` is ___
Reply text: low polyreactivity

Inquiry: Fill in: polyreactivity (PSR sort gate) of `QVQLVESGGGLVQAGGSLRLSCAASGSIFGEYAMGWYRQAPGKERELVADITTGGNTNYADSVKGRFTISRDNAKNTVYLQMNSLKPEDSAVYYCYAFGNTYGYWWFGYWGQGTQVTVSS` is ___
Reply text: low polyreactivity

Inquiry: Fill in: polyreactivity (PSR sort gate) of `QVQLVESGGGLVQAGGSLRLSCAASGRIFNYYAMGWYRQAPGKERELVAAISSGGSTYYADSVKGRFTISRDNAKNTVYLQMNSLKPEDTAVYYCAAAYGDYGYWGQGTQVTVSS` is ___
Reply text: high polyreactivity

Inquiry: Fill in: polyreactivity (PSR sort gate) of `QVQLVESGGGLVQAGGSLRISCAASGSTFEYYAMGWYRQAPGKERELVATISIDGRTNYADSVKGRFTISRDNAKKTVYLQMNSLKPEDTAVYYCAARPYWRHRYDYWGQGTQVTVSS` is ___
Reply text: low polyreactivity

Inquiry: Fill in: polyreactivity (PSR sort gate) of `QVQLVESGGGLVQAGGSLRLSCAASGFIFVYNAMGWYRQAPGKEREFVASITWSGGRTYYADSVKGRFTISRDNAKNTVYLQMNSLKPEDTAVYYCATKYPNSQGRRYDYWGQGTQVTVSS` is ___
Reply text: low polyreactivity

Inquiry: Fill in: polyreactivity (PSR sort gate) of `QVHLVESGGGLVQAGGSLRLSCAASGYTFYANAMGWYRQAPGKEREFVASITWSGGSTYYADSVKGRFTISRDNAKNTVYLQKNSLKPEDTAVYYCAAESWFKYDYWGQGTQVTVSS` is ___
Reply text: low polyreactivity
